Assay: Inhibition of PDE3 in guinea pig ventricle
Design: species or system Cavia porcellus
Provide the reported IC50 of each item.
One number for each entry, in µM.

Use the examples below as a reference point.
COC(=O)C(=Cc1cc(=O)n(C)nc1-c1ccccc1)C(=O)OC 2000
COC(=O)C(=Cc1cc(=O)[nH]nc1-c1ccccc1)C(=O)OC 2000

Moving on to another molecule below.
Problem: Request the reported IC50 associated with `CCOC(=O)C(=Cc1cc(=O)[nH]nc1-c1ccccc1)C(=O)OCC`
Result: 2000
